Data provenance is patent US6358885B1.

# Test system: corn
# protocol-details: Test C preemergence/postemergence greenhouse plant response rating 0 to 100
# Type: in vivo, Zea mays
# setup-conditions: POSTEMERGENCE, 62 g/ha, 0 to 100 scale
# From the text: The compounds evaluated in this test were formulated in a non-phytoxic solvent and applied to the soil surface before plant seedlings emerged (preemergence application), to water that covered the soil surface (flood application), and to plants that were in the one-to-four leaf stage (postemergence application). A sandy loam soil was used for the preemergence and postemergence tests, while a silt loam soil was used in the flood test. […]
experimental-endpoint: Plant response rating, Corn
// no unit, no text: just the number

molecule	Plant response rating, Corn
COCN1C(=O)COc2cc(F)c(-c3nn4c(c3Br)CCCC4)cc21 [Compound 67]	40
CCC(C)Oc1cc(-c2nn3c(c2Cl)CCCC3)c(F)cc1Cl (stereo not drawn) [Compound 48]	40

# Plant response rating, Corn of C#CC(C)N1C(=O)COc2cc(F)c(-c3nn4c(c3Cl)CCCC4)cc21 (stereo not drawn) [Compound 50] = 50
